Test system: PC-3
Test Protocol: NCI tumour cell line growth inhibition, 48 h
Activity calls are given as the source filed them. Rule as the data show it: active = GI50 up to about 1.1 µM and inactive = higher.
Metric: GI50

[[record]]
compound = "C/C=C/C/C=C/CCC(=O)C1OC1C(N)=O (centres undefined)"
metric = "GI50"
reported_value = "15.4 µM (inactive)"

[[record]]
compound = "CN(C)C1(N(C)C)Oc2c(c(=O)n(C)c(=O)n2C)C(c2ccccc2Br)C1(F)F (centres undefined)"
metric = "GI50"
reported_value = "> 100 µM (inactive)"


State recorded GI50 for all listed compounds.
1. O=c1oc2ccccc2cc1-c1nc2ccccc2s1
2. O=C1C(O)=C(Cl)C(=O)c2c(O)ccc(O)c21
3. Cc1cc(=O)n2nc(SCc3ccccc3)sc2n1
4. C=C(C)C1(Sc2ccc(OC)cc2)CC1

**A:**
1. 17.2 µM (inactive)
2. > 100 µM (inactive)
3. > 100 µM (inactive)
4. 29.3 µM (inactive)

State recorded GI50 for all listed compounds.
1. Nc1ccc(C(=O)O)cc1 [AMINOBENZOIC ACID]
2. O=C(NCP(=O)(c1ccccc1)c1ccccc1)OCc1ccccc1
3. Nc1nc(SCCc2ccccc2)nc2nc3c(c(-c4ccccc4)c12)CCCC3
4. O=C1NC(=S)NC(=O)C1C(c1ccc(O)cc1)C1C(=O)NC(=S)NC1=O.c1ccncc1
5. O=S1(=O)c2ccccc2C(Nc2ccccc2)N1c1ccccc1 (centres undefined)
6. Cc1c(N)nc([C@H](CC(N)=O)NC[C@H](N)C(N)=O)nc1C(=O)N[C@H](C(=O)N[C@H](C)[C@@H](O)CC(=O)N[C@H](C(=O)NC(O[C@@H]1O[C@@H](C)[C@@H](N)[C@@H](O)[C@H]1O)C(O)c1nc(-c2nc(C(=O)NCCCCN)cs2)cs1)[C@@H](C)O)[C@@H](O[C@@H]1O[C@@H](CO)[C@@H](O)[C@H](O)[C@@H]1O[C@H]1O[C@H](CO)[C@@H](O)[C@H](OC(N)=O)[C@@H]1O)c1c[nH]cn1 (some centres undefined)

**A:**
> 100 µM (inactive)
64.3 µM (inactive)
> 100 µM (inactive)
> 100 µM (inactive)
> 100 µM (inactive)
> 50 µM (inactive)

----------
Would you mind telling me the reported GI50 of each entry?
Tested on: SR
Test Protocol: NCI tumour cell line growth inhibition, 48 h
Calls of active or inactive are those of the source. Rule as the data show it: active = GI50 up to about 1.1 µM and inactive = higher.

[[record]]
compound = "O=C(CCl)Nc1ccc(C(=O)N/N=C/c2ccc(Cl)cc2)cc1"
subject_of_test = "SR"
reported_value = "1.79 µM (inactive)"

[[record]]
compound = "O=C(O)/C(Cl)=C(\\Cl)C(=O)Nc1ccccc1"
subject_of_test = "SR"
reported_value = "> 100 µM (inactive)"

[[record]]
compound = "CCOC(=O)C1C(c2ccc3c(c2)OCO3)c2c(n[nH]c2O)CC1(C)O (stereo unspecified)"
subject_of_test = "SR"
reported_value = "> 100 µM (inactive)"

[[record]]
compound = "COC(=O)c1c([N+](=O)[O-])ncn1[C@H]1OC[C@@H](OC(C)=O)[C@@H](OC(C)=O)[C@@H]1OC(C)=O"
subject_of_test = "SR"
reported_value = "> 100 µM (inactive)"

[[record]]
compound = "Nc1cc(F)ccc1CC(=O)O"
subject_of_test = "SR"
reported_value = "> 100 µM (inactive)"


**Q:** SR / GI50 / "CCNC(=O)COc1ccc(Br)cc1Br" : value?
**A:** > 100 µM (inactive)

----------
Tested on: K562
Test Protocol: NCI tumour cell line growth inhibition, 48 h
Active and inactive are the calls of the source. Rule as the data show it: active = GI50 up to about 1.1 µM and inactive = higher.
Would you mind telling me the reported GI50 of each entry?

[[record]]
compound = "O=C(NCP(=O)(c1ccccc1)c1ccccc1)OCc1ccccc1"
reported_value = "> 100 µM (inactive)"

[[record]]
compound = "Cc1c(Cl)ccc2c1NC(=O)C2(O)CC(=O)c1ccc(Cl)cc1 (stereo unspecified)"
reported_value = "22.8 µM (inactive)"

[[record]]
compound = "Cn1c(=O)c2nc(CSCc3ccccc3)[nH]c2n(C)c1=O"
reported_value = "78 µM (inactive)"


State recorded GI50 for all listed compounds.
1. Cc1cc(C)c(C(=O)O)c(N)c1O
2. CC(=O)N1N=C(c2ccc3ccccc3c2O)CC1c1ccc(N(C)C)cc1 (stereo unspecified)
3. Nc1nc(SCCc2ccccc2)nc2nc3c(c(-c4ccccc4)c12)CCCC3
4. Brc1cccc(/C=C/CN2CCN(CCOC(c3ccccc3)c3ccccc3)CC2)c1
5. ON=C1CCCCC(=NO)CCCC1
6. O=c1c(Cl)cc2nc3ccccc3sc-2c1Cl

**A:**
1. > 100 µM (inactive)
2. > 100 µM (inactive)
3. > 100 µM (inactive)
4. 7.69 µM (inactive)
5. > 100 µM (inactive)
6. 6.85 µM (inactive)

State recorded GI50 for all listed compounds.
1. CN(C)CN(C)c1nc(N(C)C)nc(N(C)CN(C)C)n1
2. CC(=O)O[C@H]1CC[C@@]2(C)C(=CC[C@@H]3[C@@H]2CC[C@]2(C)c4nc(Cl)ccc4C[C@@H]32)C1

**A:**
30.8 µM (inactive)
31.1 µM (inactive)

----------
Would you mind telling me the reported GI50 of each entry?
Tested on: Malme-3M
Test Protocol: NCI tumour cell line growth inhibition, 48 h
Active and inactive are the calls of the source. No stated cut-off is given here; in the data, active = GI50 up to about 1.1 µM and inactive = higher.

In the examples that follow, each entry is paired with its recorded GI50.
[[record]]
compound = "CC(C)N1C(C)[C@@H](c2ccccc2)O[P@@]1(=O)CC1=CCCCC1 (stereo partly drawn)"
metric = "GI50"
reported_value = "> 100 µM (inactive)"

[[record]]
compound = "O=C([C@H](O)[C@@H](O)c1cccc(Cl)c1)C12CC3CC(CC(C3)C1)C2"
metric = "GI50"
reported_value = "4.81 µM (inactive)"

[[record]]
compound = "COc1ccc(OC)c(-c2cc(=O)c3c(OC)c(OC)c(OC)c(OC)c3o2)c1"
metric = "GI50"
reported_value = "24.3 µM (inactive)"


State recorded GI50 for all listed compounds.
1. CC(C)OC(=O)c1ccc(CCc2cc(O)c(Br)cc2O)cc1
2. CSc1nc(NC2OCC(O)C(O)C2O)c(N)c(=O)n1C (stereo not drawn)
3. C/C(CC(O)(/C=N/O)c1ccccc1)=N/O (stereo not drawn)

**A:**
17.2 µM (inactive)
> 100 µM (inactive)
> 100 µM (inactive)

----------
System: NCI-H23
Test Protocol: NCI tumour cell line growth inhibition, 48 h
Active and inactive are the calls of the source. No stated cut-off is given here; in the data, active = GI50 up to about 1.1 µM and inactive = higher.
Please answer using one outcome listed in T (active), F (inactive)

Field: example entries. Status: answers known.
[[record]]
compound = "O=C([C@H](O)[C@@H](O)c1cccc(Cl)c1)C12CC3CC(CC(C3)C1)C2"
class_name = "F"

[[record]]
compound = "CC1(C)CC2=C(Sc3ccccc3N2)C(=O)C1C(=O)C(=O)Nc1cc(Cl)ccc1Cl (stereo not given)"
class_name = "F"

[[record]]
compound = "C=C1CC(OC(C)=O)/C=C(/C)CCC(C(C)(C)O)CC1O (stereo not given)"
class_name = "F"

[[record]]
compound = "CCCCN(C)CC(C(C)=O)C(c1ccccc1)c1c(O)c2ccccc2oc1=O (stereo not given)"
class_name = "F"

[[record]]
compound = "C=CC[C@H](C)CCC(=O)N1[C@H]2CC3CC[C@@]2(CS1(=O)=O)C3(C)C"
class_name = "F"

[[record]]
compound = "O=C1Nc2ccccc2/C1=c1\\[nH]c(=O)/c(=C\\c2ccc(OCc3ccccc3)cn2)[nH]c1=O"
class_name = "F"


**Q:** # lookup: test call for "C/C(=N/NC(=S)Nc1cccc(C)c1)c1ccccn1"
**A:** T

**Q:** # lookup: test call for "O=C(O)c1nc(-c2ccccn2)c(-c2ccccn2)nc1C(=O)O"
**A:** F

**Q:** # lookup: test call for "NCCCN(CCCN)CCCNCc1c2ccccc2c(CNCCCN(CCCN)CCCN)c2ccccc12"
**A:** F

**Q:** # lookup: test call for CC(=O)OC1=C2CC[C@@H]3C(CC[C@@]4(C)C3CC[C@@H]4OC(C)=O)[C@@]2(C)CC(C#N)C1=O (stereo not given in full)
**A:** F

----------
Test system: SK-OV-3
Test Protocol: NCI tumour cell line growth inhibition, 48 h
Calls of active or inactive are those of the source. Rule as the data show it: active = GI50 up to about 1.1 µM and inactive = higher.
Metric: GI50

[[record]]
compound = "COC(=O)C1=C(OC(=O)/C(=C/c2ccc(Cl)cc2Cl)c2ccc(Cl)cc2Cl)C(C(=O)OC)[C@@]2(O)[C@@H](C(=O)OC)[C@H](C)C[C@@H]1[C@@H]2C(=O)OC (some centres undefined)"
reported_value = "> 100 µM (inactive)"

[[record]]
compound = "CC(=O)Oc1ccc2c3c1O[C@H]1[C@H](O)CC[C@@]4(O)[C@@H](C2)N(C)CC[C@]314"
reported_value = "> 100 µM (inactive)"

[[record]]
compound = "Cn1/c(=N\\N=C(\\CNCCO)[C@@H](O)[C@@H]2OC(c3ccccc3)OC[C@H]2O)sc2ccccc21 (some centres undefined)"
reported_value = "18.4 µM (inactive)"


Consider the record given below.
**Q:** SK-OV-3 / GI50 / COC(=O)C(Cc1ccccc1)OC(=O)C(N)CC(=O)O (centres undefined) : value?
**A:** > 100 µM (inactive)

Data provenance: ChEMBL document CHEMBL1201862
